# Target Of Assay: T1, Human C5 (human, UniProt P01031 19-1676)
# T1 construct: The natural protein has a beta and an alpha chain; also called complement factor 5; complement component 5
# Protocol: SPR, mAb captured by anti-hFc, 37C
Measured 100 nM Human C5 Bound (RU), listed per entry.
Write the value in RU as a bare number.

Examples from the recorded data:
H4H12170P (antibody, human IgG4, V domains shown) VH: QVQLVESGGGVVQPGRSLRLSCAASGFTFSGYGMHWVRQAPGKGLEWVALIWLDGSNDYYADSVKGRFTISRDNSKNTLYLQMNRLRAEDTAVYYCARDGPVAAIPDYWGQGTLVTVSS VL: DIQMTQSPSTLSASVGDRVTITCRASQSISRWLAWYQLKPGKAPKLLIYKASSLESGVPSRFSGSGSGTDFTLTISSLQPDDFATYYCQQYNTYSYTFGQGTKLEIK :: 55
H4H12161P (antibody, human IgG4, V domains shown) VH: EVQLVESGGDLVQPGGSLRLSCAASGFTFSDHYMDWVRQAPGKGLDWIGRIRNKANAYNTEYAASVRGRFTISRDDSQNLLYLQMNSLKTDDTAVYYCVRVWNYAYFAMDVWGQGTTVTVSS VL: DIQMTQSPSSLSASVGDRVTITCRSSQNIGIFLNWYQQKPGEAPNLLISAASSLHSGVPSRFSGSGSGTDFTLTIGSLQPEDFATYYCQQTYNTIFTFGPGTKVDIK :: 66
H4H12166P10 (antibody, human IgG4, V domains shown, human IgG4 Fc with S108P hinge mutation) VH: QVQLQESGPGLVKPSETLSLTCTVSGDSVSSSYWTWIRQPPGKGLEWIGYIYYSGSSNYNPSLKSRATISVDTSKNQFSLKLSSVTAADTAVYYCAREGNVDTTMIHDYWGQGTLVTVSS VL: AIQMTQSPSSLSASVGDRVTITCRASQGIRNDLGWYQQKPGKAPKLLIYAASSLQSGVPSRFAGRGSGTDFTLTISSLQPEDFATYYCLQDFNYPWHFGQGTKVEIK :: 82

Please turn your attention to the following entry.
Kindly note the recorded 100 nM Human C5 Bound (RU) for H4H12168P (antibody, human IgG4, V domains shown) VH: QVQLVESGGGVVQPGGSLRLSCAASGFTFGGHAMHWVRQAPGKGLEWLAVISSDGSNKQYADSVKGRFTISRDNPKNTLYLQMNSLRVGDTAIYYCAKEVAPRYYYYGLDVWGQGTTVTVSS VL: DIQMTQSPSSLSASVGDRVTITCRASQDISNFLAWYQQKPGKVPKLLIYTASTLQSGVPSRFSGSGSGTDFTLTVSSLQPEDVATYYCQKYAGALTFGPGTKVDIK , which is 12
